B1: KLHL14 (parent)
chain: YVIGGRNETGYLSSVECYNLETNE

Variants of: B1
Assay: protein stability index of a GFP-peptide fusion (GPS, HEK-293T) (PSI 1-6); higher = more stable;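 also: lentivirally expressed fusions sorted by FACS into six bins by GFP to DsRed ratio, PSI derived from sequencing read proportions per bin multiplied by bin number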
Conditions: c terminus: a fixed tail appended
Decide by protein stability index: equal to or exceeding 2 means 1, less means 0.

Query block: Reported protein stability index reaches at least 2 for YVIGGRNETGYLSSAECYNLETNE [V15A] ?
Result block: 0

Query block: What about this variant? YVIGGRNETGYLGSVECYNLETNE [S13G]
Result block: 0

Query block: What about this variant? YVIGGRNETGYLSSVECTNLETNE [Y18T]
Result block: 1

Query block: What about this variant? YVKGGRNETGYLSSVECYNLETNE [I3K]
Result block: 0

Query block: What about this variant? YVIGGCNETGYLSSVECYNLETNE [R6C]
Result block: 1

Query block: What about this variant? YVIGGRNETGYLSSVECYNLETSE [N23S]
Result block: 0

Query block: What about this variant? YVIGGGNETGYLSSVECYNLETNE [R6G]
Result block: 0

Query block: What about this variant? YVIGGRNETGYLSSVECSNLETNE [Y18S]
Result block: 1

Query block: What about this variant? YVIGGRNETGYLSSVECENLETNE [Y18E]
Result block: 1

Query block: What about this variant? YVIGGRNETGYLSSSECYNLETNE [V15S]
Result block: 1

Query block: What about this variant? YVIGGRNETGYLSSVECYNLETTE [N23T]
Result block: 1

Query block: What about this variant? YVIGGRNETGYLSSVECYNLFTNE [E21F]
Result block: 1

Query block: What about this variant? YVIGGRNETYYLSSVECYNLETNE [G10Y]
Result block: 0

Query block: What about this variant? YVIGGRNETGYHSSVECYNLETNE [L12H]
Result block: 0

Query block: What about this variant? YVIGYRNETGYLSSVECYNLETNE [G5Y]
Result block: 0

Query block: What about this variant? YVIGGRNETIYLSSVECYNLETNE [G10I]
Result block: 0

Query block: What about this variant? YVIGGRNETGYLSSVECYNLETWE [N23W]
Result block: 0

Query block: What about this variant? YVIGGRHETGYLSSVECYNLETNE [N7H]
Result block: 1

Query block: What about this variant? YVIGGRNETNYLSSVECYNLETNE [G10N]
Result block: 0

Query block: What about this variant? YVIGGRNETCYLSSVECYNLETNE [G10C]
Result block: 1

Query block: What about this variant? YVIGGRNEWGYLSSVECYNLETNE [T9W]
Result block: 0
